System: SW982
EXPERIMENT: relative viability vs DMSO control (72 h) (fraction); higher = more viable cells
CONDITIONS: 0.01372 µM
MEASURED_ATTRIBUTE: relative viability

Documented relative viability of "CO[C@H]1C[C@@H]2CC[C@@H](C)[C@@](O)(O2)C(=O)C(=O)N2CCCC[C@H]2C(=O)O[C@H]([C@H](C)C[C@@H]2CC[C@@H](O)[C@H](OC)C2)CC(=O)[C@H](C)/C=C(\C)[C@@H](O)[C@@H](OC)C(=O)[C@H](C)C[C@H](C)/C=C/C=C/C=C/1C" : 0.634

Documented relative viability of "CCN(c1cc(-c2ccc(CN3CCOCC3)cc2)cc(C(=O)NCc2c(C)cc(C)[nH]c2=O)c1C)C1CCOCC1" : 0.973

---

Tested on: G401
EXPERIMENT: relative viability vs DMSO control (72 h) (fraction); higher = more viable cells
CONDITIONS: 0.00017 µM
Each entry below carries its reported relative viability.
Enter the number alone.

Here is how some compounds turned out for relative viability.
COc1cc2nccc(Oc3ccc(NC(=O)C4(C(=O)Nc5ccc(F)cc5)CC4)cc3)c2cc1OC [Cabozantinib] :: 1.08
FC(F)(F)c1ccc(CNc2ccc(Cc3c[nH]c4ncc(Cl)cc34)cn2)cn1 :: 1.03
CO[C@@H]1[C@H](N(C)C(=O)c2ccccc2)C[C@H]2O[C@]1(C)n1c3ccccc3c3c4c(c5c6ccccc6n2c5c31)C(=O)NC4 :: 0.948

Please examine the following record next.
relative viability on G401 for "C[C@@H]1COC(Nc2ccc3ncnc(Nc4ccc(OCc5nccs5)c(Cl)c4)c3c2)=N1" is 0.96

---

Test system: SW982
EXPERIMENT: relative viability vs DMSO control (72 h) (fraction); higher = more viable cells
CONDITIONS: 0.00152 µM
Each entry below carries its reported relative viability.
Enter the number alone.

Here is how some compounds turned out for relative viability.
C[C@H]1Oc2cc(cnc2N)-c2c(nn(C)c2C#N)CN(C)C(=O)c2ccc(F)cc21 [Lorlatinib] :: 1.02
Cc1cc(Nc2ncc(Cl)c(Nc3ccccc3S(=O)(=O)C(C)C)n2)c(OC(C)C)cc1C1CCNCC1 [Ceritinib] :: 0.946
CNC(=O)c1cc(Oc2ccc(NC(=O)Nc3ccc(Cl)c(C(F)(F)F)c3)cc2)ccn1 [Sorafenib] :: 1.05
COc1cc2ncnc(Nc3ccc(F)c(Cl)c3)c2cc1NC(=O)/C=C/CN1CCCCC1 [Dacomitinib] :: 1.08
COc1cc2ncnc(Nc3cccc(Cl)c3F)c2cc1OC(=O)N1CCN(C)C[C@H]1C [AZD-3759] :: 1.03

Documented relative viability of C=CC(=O)Nc1cc(Nc2nccc(-c3cn(C)c4ccccc34)n2)c(OC)cc1N(C)CCN(C)C [Osimertinib] : 1.01

Documented relative viability of Cc1ccc(C(=O)OCc2ccc([C@@H](CN)C(=O)Nc3ccc4cnccc4c3)cc2)c(C)c1 [Netarsudil] : 1.03

Documented relative viability of Cc1ccc(NC(=O)c2ccc(CN3CCN(C)CC3)cc2)cc1Nc1nccc(-c2cccnc2)n1 [Imatinib] : 0.973

---

Tested on: SYO-1
EXPERIMENT: relative viability vs DMSO control (72 h) (fraction); higher = more viable cells
CONDITIONS: 10 µM
MEASURED_ATTRIBUTE: relative viability
Enter the number alone.

Here is how some compounds turned out for relative viability.
CN(C)C[C@@H]1CCn2cc(c3ccccc32)C2=C(C(=O)NC2=O)c2cn(c3ccccc23)CCO1 :: -0.0266
COc1cc2c(Oc3ccc4[nH]c(C)cc4c3F)ccnc2cc1OCC1(N)CC1 :: 0.115
Cc1ccc(C(=O)OCc2ccc([C@@H](CN)C(=O)Nc3ccc4cnccc4c3)cc2)c(C)c1 :: -0.0088
COc1cc2ncnc(Nc3cccc(Cl)c3F)c2cc1OC(=O)N1CCN(C)C[C@H]1C :: 0.614
CCN(c1cc(-c2ccc(CN3CCOCC3)cc2)cc(C(=O)NCc2c(C)cc(C)[nH]c2=O)c1C)C1CCOCC1 :: 0.873

Documented relative viability of "CNC(=O)c1cc(Oc2ccc(NC(=O)Nc3ccc(Cl)c(C(F)(F)F)c3)cc2)ccn1" : 0.137

Documented relative viability of "N#CCC1(n2cc(-c3ncnc4[nH]ccc34)cn2)CN(C2CCN(C(=O)c3ccnc(C(F)(F)F)c3F)CC2)C1" : 0.698

Documented relative viability of "C=CC(=O)Nc1cccc(Nc2nc(Nc3ccc(N4CCN(C(C)=O)CC4)cc3OC)ncc2C(F)(F)F)c1" : 0.118

Documented relative viability of "FC(F)(F)c1ccc(CNc2ccc(Cc3c[nH]c4ncc(Cl)cc34)cn2)cn1" : 0.659
